System: SNB-75
measurement.protocol: NCI tumour cell line growth inhibition, 48 h
Calls of active or inactive are those of the source. No stated cut-off is given here; in the data, active = GI50 up to about 1.1 µM and inactive = higher.
Outcomes: true (active), false (inactive)

{"compound": "COC(=O)[C@H]1COC(=O)N1", "label": "false"}
{"compound": "O=C(CC(=O)N1N=C(n2ccc3ccccc32)CC1c1ccccc1)Nc1cccc(Cl)c1 (stereo unspecified)", "label": "false"}
{"compound": "CCN(CC)CCC1(C2CCCCC2)CCC(=O)NC1=O (stereo unspecified)", "label": "false"}
{"compound": "CC(=O)OCC1OC(OC(C)=O)C(NC#N)C(OC(C)=O)C1OC(C)=O (stereo unspecified)", "label": "false"}
{"compound": "O=C(NS(=O)(=O)Nc1ccc(Cl)cc1)OCc1ccc(Cl)cc1Cl", "label": "false"}
{"compound": "O=C(CC(C(=O)c1ccsc1)c1ccccc1)c1cccs1 (stereo unspecified)", "label": "false"}
{"compound": "Oc1ccc2ccccc2c1/C=C/c1ccc2c(Br)cc(Br)c(O)c2n1", "label": "false"}
{"compound": "CC[P+]1(c2ccccc2)CCCCC1", "label": "false"}
{"compound": "C=C1C(=O)O[C@@H]2C=C(C)C3=CC(=O)[C@](C)(C[C@H](OC(=O)/C(C)=C\\C)[C@@H]12)O3", "label": "false"}
{"compound": "COc1ccc(C2SCC(=O)N2NC(=O)C(C)Oc2ccccc2Cl)cc1 (stereo unspecified)", "label": "false"}
{"compound": "CC1(C)CC(O)C2=C(O1)C(=O)c1ncccc1C2=O (stereo unspecified)", "label": "true"}
